// provenance: ChEMBL document CHEMBL1149452

- MEASURED TARGET: 17-beta-hydroxysteroid dehydrogenase type 1 (Homo sapiens, UniProt P14061)
- Sequence (P14061 whole entry): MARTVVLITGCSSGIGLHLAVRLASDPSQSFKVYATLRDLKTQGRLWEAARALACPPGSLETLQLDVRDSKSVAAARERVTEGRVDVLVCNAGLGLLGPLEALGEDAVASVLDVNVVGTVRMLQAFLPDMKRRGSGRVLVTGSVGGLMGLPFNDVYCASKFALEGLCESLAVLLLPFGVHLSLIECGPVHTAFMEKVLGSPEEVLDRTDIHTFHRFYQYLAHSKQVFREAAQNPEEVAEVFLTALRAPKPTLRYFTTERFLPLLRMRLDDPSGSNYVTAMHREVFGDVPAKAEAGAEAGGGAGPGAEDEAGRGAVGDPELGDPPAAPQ
- METHOD: Inhibition of 17-beta HSD1 in T47D cells
Could you please report measured pIC50 for the items listed next?
Scale note: pIC50 = -log10(concentration in M).

Problem: Which value of pIC50 has been reported for C[C@]12CC[C@@H]3c4ccc(O)cc4C(=O)C[C@H]3[C@@H]1CCC2=O in the records?
Result: 6.47

Problem: Reported pIC50, compound C[C@]12CC[C@@H]3c4ccc(O)cc4CC[C@H]3[C@@H]1CC(CC(=O)NCC1CCCO1)C2=O (some centres undefined) : ____
Result: 6.42

Problem: What value of pIC50 has been reported for the following compound? C[C@]12CC[C@@H]3c4ccc(O)cc4CC[C@H]3[C@@H]1CC(C(=O)NCc1cccnc1)[C@@H]2O (some centres undefined)
Result: 6.29

Problem: Which measured pIC50 value corresponds to CNC(=O)CC1C[C@H]2[C@@H]3CCc4cc(O)ccc4[C@H]3CC[C@]2(C)C1=O (some centres undefined) ?
Result: 5.82
